B1: PRPH (parent)
chain: DEIEFLKKLHEEELRDLQVSVESQ

variants of: B1; assay: protein stability index of a GFP-peptide fusion (GPS, HEK-293T) (PSI 1-6); higher = more stable; conditions: c terminus: a fixed tail appended;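 also: lentivirally expressed fusions sorted by FACS into six bins by GFP to DsRed ratio, PSI derived from sequencing read proportions per bin multiplied by bin number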
Here the recorded protein stability index is given for each entry.

# query-sequence, protein stability index
measured = [
    ("DEIEFLKKLHEEELRDLQNSVESQ [V19N]", 4.87),
    ("DEIEFLKKLHEEELRDLQRSVESQ [V19R]", 5.06),
    ("DDIEFLKKLHEEELRDLQVSVESQ [E2D]", 5.01),
    ("DEIEFLKKLHEEELRDTQVSVESQ [L17T]", 5.06),
    ("DEIEFLKKLHEEELRDLQVSVCSQ [E22C]", 4.93),
    ("DEIEFLKKLHEEELRDLQVSVEDQ [S23D]", 5.04),
]
